Every entry's value here was drawn from the CheMixHub viscosity set.

This listing pairs compounds with measured viscosity.
# test-summary: xn = mol fraction of the nth substance listed
# stated-conditions: 303 K; 101.33 kPa; x1 = 0.3
± gives the uncertainty stated by the source.

Nc1ccccc1 + CCC(C)O :: 1.954 ± 0.2 mPa·s

Query :: What value of measured viscosity is listed for Nc1ccccc1 + Cc1cccc(C)c1 ?
Result :: 1.316 ± 0.14 mPa·s

Query :: What value of measured viscosity is listed for Nc1ccccc1 + CCCCO ?
Result :: 1.951 ± 0.2 mPa·s

Query :: What value of measured viscosity is listed for Nc1ccccc1 + CC(C)CO ?
Result :: 2.096 ± 0.22 mPa·s

Query :: What value of measured viscosity is listed for Nc1ccccc1 + CC(C)(C)O ?
Result :: 2.307 ± 0.24 mPa·s

* * *

# stated-conditions: 303.15 K; 101 kPa
metric-name: viscosity (mPa·s)
Give just the numeric value; mPa·s need not be written.

CCCCCCCCNCCCCCCCC :: 3.665

Query :: What value of measured viscosity is listed for CCOC(=O)CCCBr ?
Result :: 1.826

Query :: What value of measured viscosity is listed for ClCc1ccccc1 ?
Result :: 1.112

Query :: What value of measured viscosity is listed for COP(=O)([O-])OC.Cn1cc[n+](C)c1 ?
Result :: 210.1

Query :: What value of measured viscosity is listed for C[NH+](CCO)CCO.O=C[O-] ?
Result :: 350

Query :: What value of measured viscosity is listed for CCCBr ?
Result :: 0.486

Query :: What value of measured viscosity is listed for COCCOCCOCCO ?
Result :: 5.412

Query :: What value of measured viscosity is listed for CCC(O)CO (stereo not drawn) ?
Result :: 38.71

* * *

# test-summary: xn = mol fraction of the nth substance listed
# stated-conditions: 303 K; 101.33 kPa; x1 = 0.1
This listing pairs molecules with measured viscosity.
Give just the numeric value; mPa·s need not be written.

Examples with answers:
Nc1ccccc1 + Cc1cccc(C)c1 :: 0.815
Nc1ccccc1 + CC(C)(C)O :: 2.851

Query :: What value of measured viscosity is listed for Nc1ccccc1 + CCC(C)O ?
Result :: 2.052

Query :: What value of measured viscosity is listed for Nc1ccccc1 + CCCCO ?
Result :: 2.031

Query :: What value of measured viscosity is listed for Nc1ccccc1 + CC(C)CO ?
Result :: 2.305

* * *

# test-summary: xn = mol fraction of the nth substance listed
# stated-conditions: 303.2 K; 101.33 kPa; x2 = 0.6
This listing pairs molecules with measured viscosity.
Give just the numeric value; mPa·s need not be written.

Examples with answers:
CC(C)(C)O + c1ccccc1 :: 0.671
CC(C)(C)O + CCO :: 1.793
CC(C)(C)O + CCCCCC :: 0.41
CC(C)(C)O + CC(C)O :: 2.396
CC(C)(C)O + CO :: 1.36

Then there is this molecule:
Query :: What value of measured viscosity is listed for CC(C)(C)O + O ?
Result :: 3.877

* * *

# test-summary: xn = mol fraction of the nth substance listed
# stated-conditions: 303.2 K; 101.33 kPa; x2 = 0.85
metric-name: viscosity (mPa·s)
Give just the numeric value; mPa·s need not be written.

Examples with answers:
CC(C)(C)O + CCO :: 1.239
CC(C)(C)O + c1ccccc1 :: 0.559
CC(C)(C)O + CC(C)O :: 1.979
CC(C)(C)O + CO :: 0.746
CC(C)(C)O + O :: 3.182

Then there is this molecule:
Query :: What value of measured viscosity is listed for CC(C)(C)O + CCCCCC ?
Result :: 0.302

* * *

# test-summary: xn = mol fraction of the nth substance listed
# stated-conditions: 303.2 K; 101.33 kPa; x2 = 0.15
Param threshold (3 mPa·s) applies to viscosity; output 1 (yes) when value >= threshold, 0 (no) when value < threshold.

Some solved cases for reference:
CC(C)(C)O + c1ccccc1 :: 0 (no)
CC(C)(C)O + CC(C)O :: 1 (yes)
CC(C)(C)O + O :: 1 (yes)

Query :: Determine whether measured viscosity meets or exceeds 3 mPa·s for CC(C)(C)O + CCCCCC
Result :: 0 (no)

* * *

# stated-conditions: 303.15 K; 101.33 kPa
metric-name: viscosity (mPa·s)
Give just the numeric value; mPa·s need not be written.

CCCCOC(=O)c1ccccc1 :: 2.189
Nc1ccccc1 :: 3.078

Query :: What value of measured viscosity is listed for NCCN ?
Result :: 1.299

Query :: What value of measured viscosity is listed for CCNCC ?
Result :: 0.288

* * *

# test-summary: xn = mol fraction of the nth substance listed
# stated-conditions: 303 K; 101.33 kPa; x1 = 0.2
± gives the uncertainty stated by the source.
metric-name: viscosity
Your answer should be a number followed by the unit of measure.

Examples with answers:
Nc1ccccc1 + CC(C)CO :: 2.138 ± 0.22 mPa·s
Nc1ccccc1 + CCC(C)O :: 1.978 ± 0.2 mPa·s
Nc1ccccc1 + CC(C)(C)O :: 2.363 ± 0.24 mPa·s
Nc1ccccc1 + Cc1cccc(C)c1 :: 1.025 ± 0.11 mPa·s

Then there is this molecule:
Query :: What value of measured viscosity is listed for Nc1ccccc1 + CCCCO ?
Result :: 1.975 ± 0.2 mPa·s

* * *

# test-summary: xn = mol fraction of the nth substance listed
# stated-conditions: 303 K; 101.33 kPa; x1 = 0.7
This listing pairs compounds with measured viscosity.
Give just the numeric value; mPa·s need not be written.

Examples with answers:
Nc1ccccc1 + CC(C)(C)O :: 2.407
Nc1ccccc1 + CCCCO :: 2.186
Nc1ccccc1 + CC(C)CO :: 2.284

Then there is this compound:
Query :: What value of measured viscosity is listed for Nc1ccccc1 + Cc1cccc(C)c1 ?
Result :: 2.432

* * *

# test-summary: xn = mol fraction of the nth substance listed
# stated-conditions: 303 K; 101.33 kPa; x1 = 0.5
± gives the uncertainty stated by the source.
metric-name: viscosity
Your answer should be a number followed by the unit of measure.

Nc1ccccc1 + CCCCO :: 1.962 ± 0.2 mPa·s
Nc1ccccc1 + Cc1cccc(C)c1 :: 2.076 ± 0.22 mPa·s
Nc1ccccc1 + CCC(C)O :: 2.076 ± 0.21 mPa·s
Nc1ccccc1 + CC(C)(C)O :: 2.257 ± 0.23 mPa·s

Query :: What value of measured viscosity is listed for Nc1ccccc1 + CC(C)CO ?
Result :: 2.073 ± 0.21 mPa·s

* * *

# test-summary: xn = mol fraction of the nth substance listed
# stated-conditions: 303.2 K; 101.33 kPa; x2 = 0.95
Lab note: compare viscosity with 1 mPa·s, writing criterion met if less and criterion not met if equal or more.

Some solved cases for reference:
CC(C)(C)O + CCCCCC :: criterion met
CC(C)(C)O + CO :: criterion met
CC(C)(C)O + CCO :: criterion not met
CC(C)(C)O + CC(C)O :: criterion not met
CC(C)(C)O + O :: criterion not met

Next compound, please.
Query :: Please state whether viscosity is below 1 mPa·s for CC(C)(C)O + c1ccccc1
Result :: criterion met

* * *

# test-summary: xn = mol fraction of the nth substance listed
# stated-conditions: 308.15 K; 100 kPa; x2 = 0.5
metric-name: viscosity (mPa·s)
Give just the numeric value; mPa·s need not be written.

Examples with answers:
CCNCC + CCCCOCCO :: 1.116
CCC(O)CO (centres undefined) + CCCCO :: 6.2
CCNCC + CCCCOCCOCCO :: 1.722

Query :: What value of measured viscosity is listed for CCC(O)CO (centres undefined) + CC(C)CO ?
Result :: 7.019

* * *

# stated-conditions: 308.15 K; 101 kPa
This listing pairs molecules with measured viscosity.
Give just the numeric value; mPa·s need not be written.

Examples with answers:
COP(=O)([O-])OC.Cn1cc[n+](C)c1 :: 155.6
CCNCC :: 0.2466
CCCBr :: 0.436

Query :: What value of measured viscosity is listed for COCCOCCOCCOC ?
Result :: 1.607

Query :: What value of measured viscosity is listed for CCCCOC(=O)c1ccccc1 ?
Result :: 2.208

Query :: What value of measured viscosity is listed for CCC(O)CO (configuration not stated) ?
Result :: 29.48

Query :: What value of measured viscosity is listed for COCCOCCOCCO ?
Result :: 4.535

* * *

# test-summary: xn = mol fraction of the nth substance listed
# stated-conditions: 303.2 K; 101.33 kPa; x2 = 0.05
This listing pairs compounds with measured viscosity.
Give just the numeric value; mPa·s need not be written.

Examples with answers:
CC(C)(C)O + c1ccccc1 :: 2.528
CC(C)(C)O + CO :: 3.285
CC(C)(C)O + CCO :: 3.256
CC(C)(C)O + CCCCCC :: 2.298
CC(C)(C)O + O :: 3.236

Then there is this compound:
Query :: What value of measured viscosity is listed for CC(C)(C)O + CC(C)O ?
Result :: 3.297
